Please go through the items and note down their Percentage of rats in which the test compound prevented MES-induced seizure.
Tested on: MES-induced seizure
Assay: Maximal Electroshock Seizure (MES) test in rats, oral administration
Type: in vivo
Settings: 30 mg/kg oral, 2.0 h after administration
One number for each entry, in %.

Worked set:
Nc1ccc(Oc2ccc(N)cc2)cc1 [4,4′-diaminodiphenyl ether] : 75
Nc1ccc(C(=O)c2ccc(N)cc2)cc1 [4,4′-diaminobenzophenone] : 100
Nc1ccc(Nc2cccc(N)c2)cc1 [(3-aminophenyl)-(4-aminophenyl) amine] : 50
Nc1ccc(Sc2ccc(N)cc2)cc1 [4,4′-thiodianiline] : 100

Let's switch to this molecule now.
Request: Give its Percentage of rats in which the test compound prevented MES-induced seizure value. Item: Nc1ccc(Cc2ccc(N)cc2)cc1 [4,4′-methylenedianiline]
Result: 100
